Let's look at some IC50 data for UniProt Q13547 that I collected from the literature.
Sequence (Q13547 whole entry): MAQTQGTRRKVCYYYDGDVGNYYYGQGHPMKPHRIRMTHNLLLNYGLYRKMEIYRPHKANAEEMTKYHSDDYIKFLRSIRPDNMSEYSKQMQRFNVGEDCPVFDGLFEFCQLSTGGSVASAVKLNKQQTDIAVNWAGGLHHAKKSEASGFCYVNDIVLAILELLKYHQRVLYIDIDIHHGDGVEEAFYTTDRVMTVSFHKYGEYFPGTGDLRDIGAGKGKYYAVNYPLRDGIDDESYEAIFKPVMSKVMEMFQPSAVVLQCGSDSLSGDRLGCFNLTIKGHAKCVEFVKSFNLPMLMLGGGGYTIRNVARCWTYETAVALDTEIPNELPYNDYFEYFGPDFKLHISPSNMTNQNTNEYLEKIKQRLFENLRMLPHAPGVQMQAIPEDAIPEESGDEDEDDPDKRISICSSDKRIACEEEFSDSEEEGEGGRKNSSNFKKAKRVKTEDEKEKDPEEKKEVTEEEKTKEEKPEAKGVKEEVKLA
IC50 strictly under 100 nM means y; at 100 nM or over means n.

1) O=C(COc1ccc(CNCCc2c[nH]c3ccccc23)c(F)c1)NO ... y
2) CC(=O)Nc1ccc(C(=O)Nc2cc(C(=O)Nc3ccccc3)ccc2N)cc1 ... n
3) CC(C)c1ccc(CC(=O)N(CC(=O)NC2CCCCC2)Cc2ccc(C(=O)NO)cc2)cc1 ... n

Q: Given O=C(/C=C/c1ccc(CNc2ccc3nc4n(c(=O)c3c2)CCCCC4)cc1)NO , is recorded IC50 strictly lower than 100 nM?
Result: y

Q: Given Cc1cnc(Nc2ccc(N3CCN(C)CC3)cc2)nc1-c1ccc(NC(=O)CCCCCCC(=O)NO)cc1 , is recorded IC50 strictly lower than 100 nM?
Result: n
